biological target: Ubiquitin carboxyl-terminal hydrolase 2 (Homo sapiens) (UniProt O75604); assay: Confirmation Assay for Inhibitors of Ubiquitin-specific Protease USP2a Using CHOP2 as the Reporter; conditions: USP2 core, Ub-CHOP2 coupled reporter fluorescence; series mostly up to 38.3 µM; also: nearly all actives have a fitted effect of over 55% in size
Sequence (O75604 whole entry, looked up): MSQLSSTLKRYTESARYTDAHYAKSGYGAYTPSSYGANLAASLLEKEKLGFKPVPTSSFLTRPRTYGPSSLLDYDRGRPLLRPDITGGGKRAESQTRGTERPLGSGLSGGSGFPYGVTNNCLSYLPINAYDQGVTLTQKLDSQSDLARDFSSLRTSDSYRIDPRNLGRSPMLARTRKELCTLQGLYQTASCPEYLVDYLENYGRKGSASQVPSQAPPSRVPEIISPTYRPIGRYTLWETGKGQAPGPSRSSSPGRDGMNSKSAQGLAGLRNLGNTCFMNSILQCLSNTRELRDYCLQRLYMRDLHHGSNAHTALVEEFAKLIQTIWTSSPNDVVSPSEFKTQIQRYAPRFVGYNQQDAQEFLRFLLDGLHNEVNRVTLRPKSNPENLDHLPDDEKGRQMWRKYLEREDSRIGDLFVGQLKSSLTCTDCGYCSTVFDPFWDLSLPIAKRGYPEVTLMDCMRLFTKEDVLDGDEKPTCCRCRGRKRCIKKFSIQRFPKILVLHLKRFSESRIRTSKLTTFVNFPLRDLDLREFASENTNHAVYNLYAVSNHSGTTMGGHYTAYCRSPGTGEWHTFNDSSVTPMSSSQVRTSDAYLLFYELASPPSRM
Results filed as inconclusive are left out. Activity calls are given as the source filed them. Calls follow the shape of the dose curve; as a rule, active = well fitted inhibition curve with a large enough effect; inconclusive = small, poorly fitted or top-dose-only effect, or effect the other way; inactive = flat fitted curve, though single readings scatter.
Please reply with one of these outcomes: active, inactive

Record lookup: outcome of this test for O=C(CSc1nnc(SCc2ccccc2)s1)N/N=C/C=C/c1ccco1 ?
active

Could you please tell me the result logged for COc1cccc(N2C(=O)C3CCCN3C2c2ccc(N(C)C)cc2)c1 (stereo not given) in this assay?
inactive

I would be grateful if you could indicate the recorded call for COc1cc(NC(=O)COC(=O)CSc2ccccc2F)c(C)cc1[N+](=O)[O-] .
inactive

Assay result, entry Nc1c(C(=O)Nc2ccc3c(c2)OCCO3)nnn1CCc1ccccc1 — outcome?
inactive

Outcome logged for O=C(COC(=O)c1ccc(NS(=O)(=O)c2cccs2)cc1)Nc1nc2c(F)c(F)c(F)cc2s1 in this assay:
active

Per the assay record, what outcome was assigned to C[C@@H]1CN([C@@H](C)CO)C(=O)c2cc(NC(=O)CCC(F)(F)F)ccc2O[C@H]1CN(C)S(=O)(=O)c1ccc(Cl)cc1 ?
inactive

Which outcome was assigned to Cc1ccc(-c2c(C#N)c(N)nc3c2CCCCC3)o1 in this test?
inactive

Call for entry CCCn1c(NC(=O)c2ccc(Br)cc2)nc2ccccc21 :
inactive

Called result for O=C(O)CC(C(=O)O)N1C(=O)/C(=C/C=C/c2ccco2)SC1=S (stereo not given)
active

Check the results log: what was the call for CCn1c2ccccc2c2nc3ccccc3nc21 ?
inactive
